# Tested on: SW620 cells (KRAS G12V)
# experiment.description: Cell viability assay (Cell Counting Kit-8, 3-day)
# Format: cell-based, human
# setup.conditions: Homo sapiens, SW-620; SW620, 72 hrs incubation
Listing of recorded IC50 by entry.

| compound | assayed.target | IC50 / nM |
| --- | --- | --- |
| CO[C@@H](C)c1ncc(N2CCN(CC(F)(F)F)CC2)cc1-c1c2c3cc(cc4c3n1CCC4)-c1csc(n1)C[C@H](NC(=O)[C@H]1[C@H](C)[C@@H]1C)C(=O)N1CCC[C@H](N1)C(=O)OCC(C)(C)C2 (atropisomer, axis not shown; (M)) [Example 86] | SW620 cells (KRAS G12V) | 2.5 |
| CO[C@@H](C)c1ncc(N2CCOCC2)cc1-c1c2c3cc(cc4c3n1CC(F)(F)C4)-c1csc(n1)C[C@H](NC(=O)[C@H]1C[C@@H]1C)C(=O)N1CCC[C@H](N1)C(=O)OCC(C)(C)C2 (atropisomer, axis not shown; (M)) [Example 75] | SW620 cells (KRAS G12V) | 3.6 |
| CO[C@@H](C)c1ncc(N2CCN(C)CC2)cc1-c1c2c3cc(cc4c3n1CCC4)-c1csc(n1)C[C@H](NC(=O)[C@@H]1C[C@H]1c1ncccn1)C(=O)N1CCC[C@H](N1)C(=O)OCC(C)(C)C2 (atropisomer, axis not shown) [Example 81] | SW620 cells (KRAS G12V) | 0.8 |
| CO[C@@H](C)c1ncc(N2CCN(C)CC2)cc1-c1c2c3cc(cc4c3n1CCC4)-c1csc(n1)C[C@H](NC(=O)[C@H]1C[C@@H]1c1ccccc1)C(=O)N1CCC[C@H](N1)C(=O)OCC(C)(C)C2 (atropisomer, axis not shown; (M)) [Example 22] | SW620 cells (KRAS G12V) | 0.8 |
| CO[C@@H](C)c1ncc(N2CCN(C)CC2)cc1-c1c2c3cc(cc4c3n1CC(F)(F)C4)-c1csc(n1)C[C@H](NC(=O)[C@H]1[C@@H]3COC[C@@H]31)C(=O)N1CCC[C@H](N1)C(=O)OCC(C)(C)C2 (atropisomer, axis not shown; (M)) [Example 60] | SW620 cells (KRAS G12V) | 1.7 |
| CO[C@@H](C)c1ncc(N2CCN(CC(F)(F)F)CC2)cc1-c1c2c3cc(cc4c3n1CCO4)-c1csc(n1)C[C@H](NC(=O)[C@H]1C[C@@H]1C(F)F)C(=O)N1CCC[C@H](N1)C(=O)OCC(C)(C)C2 (atropisomer, axis not shown; (M)) [Example 11] | SW620 cells (KRAS G12V) | 2.4 |
| COCCN1CCN(c2cnc([C@H](C)OC)c(-c3c4c5cc(cc6c5n3CCC6)-c3csc(n3)C[C@H](NC(=O)[C@H]3[C@H](C)[C@@H]3C)C(=O)N3CCC[C@H](N3)C(=O)OCC(C)(C)C4)c2)CC1 (atropisomer, axis not shown; (M)) [Example 115] | SW620 cells (KRAS G12V) | 0.4 |
| CO[C@@H](C)c1ncc(N2CCN(C)CC2)cc1-c1c2c3cc(cc4c3n1CCC4)-c1csc(n1)C[C@H](NC(=O)[C@H]1C[C@@H]1c1ccccn1)C(=O)N1CCC[C@H](N1)C(=O)OCC(C)(C)C2 (atropisomer, axis not shown; (M)) [Example 30] | SW620 cells (KRAS G12V) | 1.3 |
| CO[C@@H](C)c1ncc(N2CCN3CCCC[C@@H]3C2)cc1-c1c2c3cc(cc4c3n1CCC4)-c1csc(n1)C[C@H](NC(=O)[C@H]1C[C@@H]1c1cccnc1)C(=O)N1CCC[C@H](N1)C(=O)OCC(C)(C)C2 (atropisomer, axis not shown; (M)) [Example 102] | SW620 cells (KRAS G12V) | 0.4 |
| CO[C@@H](C)c1ncc(N2CCNCC2)cc1-c1c2c3cc(cc4c3n1CCC4)-c1csc(n1)C[C@H](NC(=O)[C@H]1[C@H](C)[C@@H]1C)C(=O)N1CCC[C@H](N1)C(=O)OCC(C)(C)C2 (atropisomer, axis not shown; (M)) [Example 108] | SW620 cells (KRAS G12V) | 0.5 |
| CO[C@@H](C)c1ncc(N2CCN(C)CC2)cc1-c1c2c3cc(cc4c3n1CCC4)-c1csc(n1)C[C@H](NC(=O)[C@H]1C[C@H]1C)C(=O)N1CCC[C@H](N1)C(=O)OCC(C)(C)C2 (atropisomer, axis not shown; (M)) [Example 33] | SW620 cells (KRAS G12V) | 7.4 |
| CO[C@@H](C)c1ncc(N2CCOCC2)cc1-c1c2c3cc(cc4c3n1CCC4)-c1csc(n1)C[C@H](NC(=O)[C@@H]1C[C@H]1C1CC1)C(=O)N1CCC[C@H](N1)C(=O)OCC(C)(C)C2 (atropisomer, axis not shown; (M)) [Example 37] | SW620 cells (KRAS G12V) | 2.1 |
| CO[C@@H](C)c1ncc(N2CCOCC2)cc1-c1c2c3cc(cc4c3n1CCO4)-c1csc(n1)C[C@H](NC(=O)[C@H]1C[C@@H]1C)C(=O)N1CCC[C@H](N1)C(=O)OCC(C)(C)C2 (atropisomer, axis not shown; (M)) [Example 8] | SW620 cells (KRAS G12V) | 1.1 |
| CO[C@@H](C)c1ncc(N2CCN3CCCC[C@@H]3C2)cc1-c1c2c3cc(cc4c3n1CCC4)-c1csc(n1)C[C@H](NC(=O)[C@H]1[C@H](C)[C@@H]1C)C(=O)N1CCC[C@H](N1)C(=O)OCC(C)(C)C2 (atropisomer, axis not shown; (M)) [Example 101] | SW620 cells (KRAS G12V) | 0.3 |
| CO[C@@H](C)c1ncc(N2CCN(CC(F)(F)F)CC2)cc1-c1c2c3cc(cc4c3n1CCC4)-c1csc(n1)C[C@H](NC(=O)[C@H]1C[C@@H]1C(F)F)C(=O)N1CCC[C@H](N1)C(=O)OCC(C)(C)C2 (atropisomer, axis not shown; (M)) [Example 21] | SW620 cells (KRAS G12V) | 1.9 |

---

Listing of recorded log10(IC50) by entry.
# assayed.target: KRAS G12C-BRAF complex (Homo sapiens (Human), UniProt P01116+P62937, G12C)
# Sequence (P01116-2 other isoform, or with tags, fused parts or gaps G12C): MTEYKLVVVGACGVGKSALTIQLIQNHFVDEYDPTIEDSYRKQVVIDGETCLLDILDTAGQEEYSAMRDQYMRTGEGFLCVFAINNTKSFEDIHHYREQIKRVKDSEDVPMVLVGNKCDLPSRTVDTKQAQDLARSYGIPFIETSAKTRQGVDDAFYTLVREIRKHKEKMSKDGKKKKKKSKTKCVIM
# Sequence (P62937 whole entry): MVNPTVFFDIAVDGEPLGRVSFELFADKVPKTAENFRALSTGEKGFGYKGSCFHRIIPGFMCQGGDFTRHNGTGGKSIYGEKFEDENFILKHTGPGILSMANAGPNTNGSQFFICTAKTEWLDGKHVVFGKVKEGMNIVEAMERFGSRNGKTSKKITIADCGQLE
# experiment.description: KRAS-BRAF with CYPA (500 nM) interaction assay (TR-FRET, Example 136)
# setup.conditions: KRAS G12C-BRAF disruption
readout.kind: log10(IC50) (log10 of the value in µM)

| molecule | assayed.target | log10(IC50) |
| --- | --- | --- |
| CO[C@@H](C)c1ncc(N2CCN(C)CC2)cc1-c1c2c3cc(cc4c3n1CCC4)-c1csc(n1)C[C@H](NC(=O)[C@@H]1C[C@H]1c1ncccn1)C(=O)N1CCC[C@H](N1)C(=O)OCC(C)(C)C2 (atropisomer, axis not shown) | KRAS G12C-BRAF complex (Homo sapiens (Human), UniProt P01116+P62937, G12C) | -1.52 |
| CO[C@@H](C)c1ncc(N2CCNCC2)cc1-c1c2c3cc(cc4c3n1CCC4)-c1csc(n1)C[C@H](NC(=O)[C@H]1[C@H](C)[C@@H]1C)C(=O)N1CCC[C@H](N1)C(=O)OCC(C)(C)C2 (atropisomer, axis not shown; (M)) | KRAS G12C-BRAF complex (Homo sapiens (Human), UniProt P01116+P62937, G12C) | -2.34 |
| CO[C@@H](C)c1ncc(N2CCOCC2)cc1-c1c2c3cc(cc4c3n1C[C@@H](O)C4)-c1csc(n1)C[C@H](NC(=O)[C@H]1[C@H](C)[C@@H]1C)C(=O)N1CCC[C@H](N1)C(=O)OCC(C)(C)C2 (atropisomer, axis not shown; (M)) | KRAS G12C-BRAF complex (Homo sapiens (Human), UniProt P01116+P62937, G12C) | -1.32 |
| CO[C@@H](C)c1ncc(N2CCOCC2)cc1-c1c2c3cc(cc4c3n1CCC4)-c1csc(n1)C[C@H](NC(=O)[C@H]1C[C@@H]1c1cccnc1)C(=O)N1CCC[C@H](N1)C(=O)OCC(C)(C)C2 (atropisomer, axis not shown; (M)) | KRAS G12C-BRAF complex (Homo sapiens (Human), UniProt P01116+P62937, G12C) | -2.22 |
| CO[C@@H](C)c1ncc(N2CCN(C)CC2)cc1-c1c2c3cc(cc4c3n1CCC4)-c1csc(n1)C[C@H](NC(=O)[C@H]1C[C@@H]1c1ccccc1)C(=O)N1CCC[C@H](N1)C(=O)OCC(C)(C)C2 (atropisomer, axis not shown; (M)) | KRAS G12C-BRAF complex (Homo sapiens (Human), UniProt P01116+P62937, G12C) | -2.19 |
| CO[C@@H](C)c1ncc(N2CCN(C3COC3)CC2)cc1-c1c2c3cc(cc4c3n1CCC4)-c1csc(n1)C[C@H](NC(=O)[C@H]1[C@H](C)[C@@H]1C)C(=O)N1CCC[C@H](N1)C(=O)OCC(C)(C)C2 (atropisomer, axis not shown; (M)) | KRAS G12C-BRAF complex (Homo sapiens (Human), UniProt P01116+P62937, G12C) | -1.87 |
| CO[C@@H](C)c1ncc(N2CCOCC2)cc1-c1c2c3cc(cc4c3n1CCC4)-c1csc(n1)C[C@H](NC(=O)[C@H]1[C@@H]3COC[C@@H]31)C(=O)N1CCC[C@H](N1)C(=O)OCC(C)(C)C2 (atropisomer, axis not shown; (M)) | KRAS G12C-BRAF complex (Homo sapiens (Human), UniProt P01116+P62937, G12C) | -2.03 |
| CO[C@@H](C)c1ncc(N2CCN(CC(F)(F)F)CC2)cc1-c1c2c3cc(cc4c3n1CCO4)-c1csc(n1)C[C@H](NC(=O)[C@H]1[C@H](C)[C@@H]1C)C(=O)N1CCC[C@H](N1)C(=O)OCC(C)(C)C2 (atropisomer, axis not shown; (M)) | KRAS G12C-BRAF complex (Homo sapiens (Human), UniProt P01116+P62937, G12C) | -1.73 |
| CO[C@@H](C)c1ncc(N2CCN(C)CC2)cc1-c1c2c3cc(cc4c3n1CCC4)-c1csc(n1)C[C@H](NC(=O)[C@H]1C[C@@H]1c1ccccn1)C(=O)N1CCC[C@H](N1)C(=O)OCC(C)(C)C2 (atropisomer, axis not shown; (M)) | KRAS G12C-BRAF complex (Homo sapiens (Human), UniProt P01116+P62937, G12C) | -1.76 |
| CO[C@@H](C)c1ncc(N2CCN(C)CC2)cc1-c1c2c3cc(cc4c3n1CCC4)-c1csc(n1)C[C@H](NC(=O)[C@H]1[C@H](C)[C@@H]1C)C(=O)N1CCC[C@H](N1)C(=O)OCC(C)(C)C2 (atropisomer, axis not shown; (M)) | KRAS G12C-BRAF complex (Homo sapiens (Human), UniProt P01116+P62937, G12C) | -2.01 |
| CO[C@@H](C)c1ncc(N2CCN3CCCC[C@@H]3C2)cc1-c1c2c3cc(cc4c3n1CCC4)-c1csc(n1)C[C@H](NC(=O)[C@H]1C[C@@H]1c1cccnc1)C(=O)N1CCC[C@H](N1)C(=O)OCC(C)(C)C2 (atropisomer, axis not shown; (M)) | KRAS G12C-BRAF complex (Homo sapiens (Human), UniProt P01116+P62937, G12C) | -2.19 |
| CO[C@@H](C)c1ncc(N2CCN(CC(F)(F)F)CC2)cc1-c1c2c3cc(cc4c3n1CCC4)-c1csc(n1)C[C@H](NC(=O)[C@H]1C[C@@H]1C(F)F)C(=O)N1CCC[C@H](N1)C(=O)OCC(C)(C)C2 (atropisomer, axis not shown; (M)) | KRAS G12C-BRAF complex (Homo sapiens (Human), UniProt P01116+P62937, G12C) | -1.82 |
| CO[C@@H](C)c1ncc(N2CCN(CC(F)F)CC2)cc1-c1c2c3cc(cc4c3n1CCC4)-c1csc(n1)C[C@H](NC(=O)[C@H]1[C@H](C)[C@@H]1C)C(=O)N1CCC[C@H](N1)C(=O)OCC(C)(C)C2 (atropisomer, axis not shown) | KRAS G12C-BRAF complex (Homo sapiens (Human), UniProt P01116+P62937, G12C) | -2.22 |
| CO[C@@H](C)c1ncc(N2CCN3CCCC[C@@H]3C2)cc1-c1c2c3cc(cc4c3n1CCC4)-c1csc(n1)C[C@H](NC(=O)[C@H]1C[C@@H]1C)C(=O)N1CCC[C@H](N1)C(=O)OCC(C)(C)C2 (atropisomer, axis not shown; (M)) | KRAS G12C-BRAF complex (Homo sapiens (Human), UniProt P01116+P62937, G12C) | -1.76 |
| CO[C@@H](C)c1ncc(N2CCN(C)CC2)cc1-c1c2c3cc(cc4c3n1CCO4)-c1csc(n1)C[C@H](NC(=O)C1CC1c1ccc(F)cc1)C(=O)N1CCC[C@H](N1)C(=O)OCC(C)(C)C2 (stereo partly drawn) | KRAS G12C-BRAF complex (Homo sapiens (Human), UniProt P01116+P62937, G12C) | -1.78 |
